These data points were gathered from PubChem BioAssay (NCI).

- Test system: MDA-MB-231 breast
- assay: NCI tumour cell line growth inhibition, 48 h
Measured GI50 values are reported for all entries that follow.

chemical string	GI50
O=C1Nc2ccccc2/C1=C\c1c(-c2ccccc2)nc2sccn12	1390 nM
O=C(Cn1c(C(=O)c2ccc(Cl)cc2)nc(-c2ccc(Cl)cc2)c1-c1ccc(Cl)cc1)c1ccccc1	> 100000 nM
O=C([O][Hg][c]1ccccc1)c1ccccc1	1860 nM
COC(=O)c1cc(NC(=O)c2cc(NC(=O)c3cc([N+](=O)[O-])n(C)c3)cn2C)cn1C	51000 nM

---

The compounds listed here are annotated with their TGI.
- Tested on: HL-60(TB) leukemia
- assay: NCI tumour cell line growth inhibition, 48 h

compound	TGI
O=C(Cc1nc2ccc(C(=O)c3ccccc3)cc2[nH]c1=O)C(=O)Nc1nc2ccccc2[nH]1	> 100 µM
Cn1cc(C2=C(c3c4n(c5ccccc35)CCNC4)C(=O)NC2=O)c2ccccc21	> 25 µM
Cc1cc(=O)oc2cc(OCCCOc3ccc4c(C)cc(=O)oc4c3)ccc12	> 100 µM
CNS(=O)(=O)OCC1OC(n2cnc3cncnc32)C(O)C1O (centres undefined)	> 100 µM
CC#C[C@]1(O)CCC2[C@@H]3CCC4=CC(=O)CCC4=C3[C@@H](c3ccc(N(C)C)cc3)C[C@@]21C (some centres undefined)	38 µM
Fc1ccc(-c2sc(-c3ccsc3)cc2Cc2ccsc2)cc1	> 10 µM
O=C([O][Hg][c]1ccccc1)c1ccccc1	1.86 µM
Cc1cc(=O)[nH]c(CNC(=O)c2ccc3ccccc3c2)n1	> 100 µM
CN(c1ccccc1)S(=O)(=O)c1ccc([N+](=O)[O-])cc1	> 100 µM
Cn1cnc(N2CCCC2)c(C#N)c1=S	> 100 µM
O=C(O)CCCCn1ccc(=O)[nH]c1=O	> 100 µM
Oc1c(CN2CCCC2)ccc2cccnc12	> 53.9 µM
N#Cc1c(NCc2ccccc2)nc(NCc2ccccc2)c(C#N)c1-c1ccc(Cl)cc1	> 50 µM
O=C(COc1ccccc1Cl)N1N=C(c2ccccc2)CC1(O)c1ccccc1 (centres undefined)	30.6 µM
C/C(CCn1[nH]c(=O)ccc1=O)=N\NC(=O)C(N)=O	> 100 µM
COc1cc(CC(C)=O)cc(OC)c1	78.5 µM
Cn1c(-c2ccc[se]2)ccc1-c1ccc(C=O)[se]1	> 100 µM
O=C1/C(=C/c2ccc(O)cc2)CCCC1CN1CCCCC1 (centres undefined)	0.924 µM
CC(c1cc(Cl)ccc1O)c1cc(Cl)ccc1O	5.75 µM
COC(=O)[C@H](CC(C)C)NC(=O)[C@H](Cc1ccccc1)N1CC2C=CC1C2 (some centres undefined)	> 100 µM
COC(=O)CNC(=O)C(Cc1ccccc1)NC(=O)c1ccc(-c2ccc(Cl)cc2Cl)o1 (centres undefined)	41.2 µM
O=c1[nH]c(=O)c2ncn(-c3ccc([N+](=O)[O-])cn3)c2[nH]1	> 100 µM
CC(=O)OCC1OC(n2cnc3nc(Br)[nH]c(=O)c32)C(OC(C)=O)C1OC(C)=O (centres undefined)	> 100 µM
COc1ccc(-c2cc(/C=C3\C(=O)Nc4cc(Cl)ccc43)[nH]n2)cc1	6.33 µM
CC(C)C(Nc1ncnc2nc[nH]c12)C(=O)O (centres undefined)	> 100 µM
C[C@@H](N)COc1ccc(-c2cnc3ccc(N[C@H](C)c4cccc(F)c4)nn23)cc1	3.74 µM
Clc1cc(-c2ccccc2)nc(Nc2nc3ccccc3[nH]2)n1	> 100 µM
O=P(O)(O)c1ccc(-c2ccc(I)cc2)cc1	> 100 µM
N[C@H]1c2c(Br)sc(Br)c2C(=O)[C@H]1O	10.5 µM

---

- Test system: COLO 205 colon
- assay: NCI tumour cell line growth inhibition, 48 h; in the data active means GI50 below about 0.43 µM; inactive means the rest
Labels: active, inactive

molecule	assigned class
CN1CCN(Cc2ccc(NC(=O)c3cncc(C#Cc4c(N)ncc5ccc(C#N)cc45)c3)cc2C(F)(F)F)CC1	active
COc1ccc(-c2cc(/C=C3\C(=O)Nc4cc(Cl)ccc43)[nH]n2)cc1	inactive
O=C(/C=C/C12c3ccccc3C(c3ccccc31)C1C(=O)N(c3ccc(Cl)cc3)C(=O)C12)c1ccccn1 (stereo not given)	inactive
O=C(CCCn1c2c(sc3ccccc32)c(=O)n2nnc(-c3ccccc3)c12)NCCc1cnc[nH]1	active
CC(c1cc(Cl)ccc1O)c1cc(Cl)ccc1O	inactive

---

// reported GI50 for each item listed
- Test system: NCI/ADR-RES ovarian
- assay: NCI tumour cell line growth inhibition, 48 h
observable: GI50

molecule	measured target	reading
COc1cc2c3c(n(CCCN(CCCN(CCCn4c5c(c6ccccc6c4=O)C(=O)c4ccccc4-5)C(=O)OC(C)(C)C)C(=O)OC(C)(C)C)c(=O)c2cc1OC)-c1cc2c(cc1C3=O)OCO2	NCI/ADR-RES ovarian	> 100 µM
C[C@H](c1ccc(F)cc1CCCC(=O)O)N(c1cc(F)ccc1F)S(=O)(=O)c1ccc(Cl)cc1	NCI/ADR-RES ovarian	30.6 µM
CCn1c(-c2nonc2N)nc2c(C#CC(C)(C)O)ncc(OC3CCNCC3)c21	NCI/ADR-RES ovarian	> 25 µM
O=C(Cn1c(C(=O)c2ccc(Cl)cc2)nc(-c2ccc(Cl)cc2)c1-c1ccc(Cl)cc1)c1ccccc1	NCI/ADR-RES ovarian	> 100 µM
COc1cc2c3c(n(CCCN4CCNCC4)c(=O)c2cc1OC)-c1cc2c(cc1C3=O)OCO2	NCI/ADR-RES ovarian	2.77 µM
CCN1CCC(CC(=O)Nc2n[nH]c3nnc(-c4cccc(F)c4F)cc23)CC1	NCI/ADR-RES ovarian	> 25 µM
O=[N+]([O-])c1ccc(/C=C/c2nc3ccc(Cl)cc3[nH]2)cc1	NCI/ADR-RES ovarian	15 µM
COC1=CC(c2ccc[nH]2)=N/C1=C\c1[nH]c(C)c(C(=O)CCC(=O)Oc2ccc3c(c2)CCC2C3CC[C@]3(C)[C@@H](O)CC[C@@H]23)c1C (stereo partly drawn)	NCI/ADR-RES ovarian	4.58 µM

---

- System: NCI-H226 lung
- assay: NCI tumour cell line growth inhibition, 48 h

compound	TGI
O=C1/C(=C/c2ccc(O)cc2)CCCC1CN1CCCCC1 (stereo unspecified)	18.2 µM
N#CC(C#N)=CNCCN1CCN(C=C(C#N)C#N)CC1	> 100 µM
COC1OCC(O)C(NC(=O)N(C)N=O)C1O (stereo unspecified)	> 100 µM
COC(=O)c1c(O)ccc2c1c1cc3ccccc3cc1n2Cc1cc(OC)cc(OC)c1	> 100 µM
COC(=O)Nc1nc2ccc(S(=O)(=O)Nc3ccccn3)cc2[nH]1	> 100 µM
CN(C)C(=O)Oc1c(Br)cc(Br)cc1C(=O)OCc1ccccc1	> 77.3 µM
CC(C)NC(=O)OCc1c(COC(=O)NC(C)C)c(-c2ccc[n+](COC(=O)Cc3ccccc3)c2)n2c1CCC2	> 100 µM
C/C(CCC(=O)O)=N/Nc1ccc([N+](=O)[O-])cc1	> 100 µM
O=C(O)CN(c1ccccc1)S(=O)(=O)c1cccc([N+](=O)[O-])c1	> 100 µM
Cc1cc(=O)[nH]c(CNC(=O)c2ccc3ccccc3c2)n1	> 100 µM
COc1ccc2c(c1)[n+]([O-])c(-c1cccc(Cl)c1)c(N)[n+]2[O-]	> 100 µM

---

Examples of molecules with documented GI50 follow.
- System: TK-10 renal
- assay: NCI tumour cell line growth inhibition, 48 h

molecule	GI50
O=C1Nc2ccccc2/C1=C\c1c(-c2ccccc2)nc2sccn12	4.61 µM
Oc1cc(N2CC2)c(O)cc1N1CC1	1.27 µM
CN1CCN(Cc2ccc(NC(=O)c3cncc(C#Cc4c(N)ncc5ccc(C#N)cc45)c3)cc2C(F)(F)F)CC1	0.969 µM
COC1=CC(c2ccc[nH]2)=N/C1=C\c1[nH]c(C)c(C(=O)CCC(=O)Oc2ccc3c(c2)CCC2C3CC[C@]3(C)[C@@H](O)CC[C@@H]23)c1C (stereo partly specified)	7.68 µM
CCCCCCCCCCCCCC[n+]1ccccc1	0.491 µM
Cc1ccc(-c2nc3nc(-c4ccc(F)cc4)nc(N4CCNCC4)c3o2)cc1	2.07 µM

---

Catalogue of TGI values
- System: SNB-75 CNS
- assay: NCI tumour cell line growth inhibition, 48 h

molecule	censoring sign	TGI (µM)
CC(C)(C)COC(=O)C(C)(C)NC(=O)C(CC(=O)OCc1ccccc1)NC(=O)OCc1ccccc1 (stereo not given)	>	100
O=c1c2c3c(sc2nc2n1N=CN(c1ccccc1)C2)CCCC3	>	100
O=C(NC(=Nc1ccccc1)SCSC(=Nc1ccccc1)NC(=O)c1ccco1)c1ccco1	=	35.1
COc1cc(OC)cc(Oc2cnc3cc(N)cc(N)c3n2)c1	=	18.6
CCCCCCSc1nc(N)nc2nc[nH]c12	=	71.7
O=C1/C(=C/c2ccc([N+](=O)[O-])s2)Oc2cc(Cl)ccc21	=	11.6
CC(=O)C1=C(C)O[C@@H]2O[C@H](COCc3ccccc3)[C@@H](OCc3ccccc3)[C@H](O)[C@@H]2S1	=	77.1
O=C(Cc1nc2ccc(C(=O)c3ccccc3)cc2[nH]c1=O)C(=O)Nc1nc2ccccc2[nH]1	>	100
COc1ccccc1NC(=S)N=Nc1c(O)[nH]c2ccccc12	>	100
C/C(CCC(=O)O)=N/Nc1ccc([N+](=O)[O-])cc1	>	100
